System: soybean (Glycine max)
test.summary: Test B pre-/postemergence
Type: in vivo
run.parameters: Rate 250 g/ha, Preemergence
Protocol: […] At the same time, these crop and weed species were also treated with postemergence applications of test chemicals formulated in the same manner. […] Treated plants and controls were maintained in a greenhouse for twelve to sixteen days, after which all species were compared to controls and visually evaluated. […]
Parameter: Plant response rating, Soybean. Scope: all listed entries.
test.readout: Plant response rating, Soybean

• Cc1cnc(-c2ccc(C(F)(F)F)cc2)nc1Cn1cnc(C(F)(F)F)c1 = 1
• Cc1cnc(-c2ccc(C(F)(F)F)cc2)nc1Cn1cc(Br)cn1 = 0
• Cc1cnc(-c2ccc(C(F)(F)F)cc2)nc1C(=O)c1cccc(OC(F)(F)F)c1 = 0
• Cc1cnc(-n2ccc(C(F)(F)F)n2)nc1Cc1cccc(C(F)(F)F)c1 = 2
• Cc1cnc(-c2ccc(C(F)(F)F)cc2)nc1C(=O)c1cccc(C(F)(F)F)c1 = 1
• Cc1cnc(-c2ccc(C(F)(F)F)cc2)nc1Cn1cc(I)cn1 = 3
• O=C(c1cccc(C(F)(F)F)c1)c1ccnc(-n2ccc(C(F)(F)F)n2)n1 = 0
• COC(=O)C(c1cccc(C(F)(F)F)c1)c1nc(-c2ccc(C(F)(F)F)cc2)ncc1C (racemic) = 0
• Cc1cnc(-n2ccc(C(F)(F)C(F)(F)F)n2)nc1C(=O)c1cccc(C(F)(F)F)c1 = 2
